- Tested on: SW480 colon carcinoma cells
- ASSAY: Cell viability assay (CellTiter-Glo) in SW480 cells
- Assay type: cell-based
- CONDITIONS: Homo sapiens, 96 h; SW480 cell viability, four days, CellTiter-Glo
pEC50: −log10 of the molar value.
MEASURED_ATTRIBUTE: pEC50

# example entries with known answers
STRUCTURE_SMILES_STRING: CN1Cc2cccc(c2)-c2cccc3[nH]c(nc23)-c2n[nH]c3ccc(cc23)-c2cnn(C)c2C1
pEC50: 6.77

STRUCTURE_SMILES_STRING: O=C1CCc2cccc(c2)-c2cccc3[nH]c(nc23)-c2n[nH]c3ccc(cc23)-c2cncc(c2)N1
pEC50: 7.03

STRUCTURE_SMILES_STRING: c1cc2cc(c1)-c1cccc3[nH]c(nc13)-c1n[nH]c3ccc(cc13)-c1cncc(c1)OCCC2
pEC50: 6.17

STRUCTURE_SMILES_STRING: O=C1CCCc2cccc(c2)-c2cccc3[nH]c(nc23)-c2n[nH]c3ccc(cc23)-c2cncc(c2)N1
pEC50: 7.46

STRUCTURE_SMILES_STRING: O=C1CCc2cccc(c2)-c2nccc3[nH]c(nc23)-c2n[nH]c3ccc(cc23)-c2cncc(c2)N1
pEC50: 7.10

STRUCTURE_SMILES_STRING: CN1CCCCN(C)c2nccc3[nH]c(nc23)-c2n[nH]c3ccc(cc23)-c2cncc(c2)C1
pEC50: 6.29

STRUCTURE_SMILES_STRING: O=C1CCc2cccc(c2)-c2cccc3[nH]c(nc23)-c2n[nH]c3ccc(nc23)-c2cncc(c2)N1
pEC50: 6.34

STRUCTURE_SMILES_STRING: O=C1CCc2cccc(c2)-c2cccc3[nH]c(nc23)-c2n[nH]c3ncc(cc23)-c2cncc(c2)N1
pEC50: 6.39

STRUCTURE_SMILES_STRING: Cn1ncc2c1CNCc1cccc(c1)-c1cccc3[nH]c(nc13)-c1n[nH]c3ccc-2cc13
pEC50: 6.93

STRUCTURE_SMILES_STRING: c1cc2cc(c1)-c1cccc3[nH]c(nc13)-c1n[nH]c3ccc(cc13)-c1cncc(c1)CNC2
pEC50: 7.59

a: O=C1CCc2cccc(c2)-c2cncc3[nH]c(nc23)-c2n[nH]c3ccc(cc23)-c2cncc(c2)N1
b: O=C1COc2cccc(c2)-c2cncc3[nH]c(nc23)-c2n[nH]c3ccc(cc23)-c2cncc(c2)N1
c: O=C1CCc2cccc(c2)-c2cccc3[nH]c(nc23)-c2n[nH]c3cnc(cc23)-c2cncc(c2)N1
d: c1cc2cc(c1)-c1cncc3[nH]c(nc13)-c1n[nH]c3ccc(cc13)-c1cncc(c1)CNC2
e: CN1Cc2cncc(c2)-c2ccc3[nH]nc(c3c2)-c2nc3c(cccc3[nH]2)-c2cccc(c2)C1
Exam item: Please list these in order of increasing pEC50. Thank you! Provide the labels, sequenced as the question asks.
Marked response: a, b, c, d, e
